Value source: the supplement of paper PMC10567573

Below, each entry is listed alongside its reported protein stability index.
B1: NP_015628.1 (parent)
chain: EQRNSRWNTVLRAVKAKTHHLEP

variants of: B1; assay: protein stability index of a GFP-peptide fusion (GPS, HEK-293T) (PSI 1-6); higher = more stable; conditions: c terminus: native;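 further: lentivirally expressed fusion library, cells FACS-sorted into six equal-sized GFP/DsRed ratio bins, PSI computed from sequencing read fractions per bin weighted by bin number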
The reply should be a number, written without any unit.

The examples below pair each entry with its known result.
Ask: Which protein stability index is reported for this variant? EQRNSRWNTVLRAVEAKTHHLEP [K15E]
Result: 3.25

Ask: Moving on to the next variant: EQRNSRWLTVLRAVKAKTHHLEP [N8L]
Result: 2.29

Ask: Moving on to the next variant: EQRQSRWNTVLRAVKAKTHHLEP [N4Q]
Result: 3.1

Ask: Moving on to the next variant: EQRNSRWNTHLRAVKAKTHHLEP [V10H]
Result: 2.81

Ask: Moving on to the next variant: EQRNSRVNTVLRAVKAKTHHLEP [W7V]
Result: 4.88

Next:
Ask: Which protein stability index is reported for this variant? EQRNSRWNTVLRAVKAKTHHLSP [E22S]
Result: 3.09

Ask: Moving on to the next variant: EQRNSRWSTVLRAVKAKTHHLEP [N8S]
Result: 2.28
